biological target: CD3ε homodimer protein (human, UniProt P07766 23-126, limits assumed); test: SPR, immobilized CD3ε homodimer;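 further: biacore T200 surface plasmon resonance at 25 °C, antibody variants flowed as analytes over amine-coupled CD3ε homodimer on a CM4 chip, variant binding amount divided by that of GLS3000 antibody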
Sequence (P07766 23-126 limits assumed): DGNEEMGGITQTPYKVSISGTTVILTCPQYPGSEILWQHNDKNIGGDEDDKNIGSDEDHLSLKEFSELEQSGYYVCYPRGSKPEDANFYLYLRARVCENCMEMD
Recorded measurements of ratio of amounts bound (vs GLS3000), one per entry
Keep the answer to the number alone.

# count of solved cases: 2
Data request: Fill blank: measured ratio of amounts bound (vs GLS3000) of the binder GLS3000 H34K (antibody, name in Kabat numbering, V domains shown, one-arm format as m2) VH: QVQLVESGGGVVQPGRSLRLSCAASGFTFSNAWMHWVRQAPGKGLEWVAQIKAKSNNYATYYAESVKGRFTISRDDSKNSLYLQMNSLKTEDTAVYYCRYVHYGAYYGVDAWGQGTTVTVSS VL: DIVMTQSPLSLPVTPGEPASISCRSSQSLVHSNRNTYLKWYQQKPGQAPRLLIYKVSNRFSGVPDRFSGSGSGTDFTLKISRVEAEDVGVYYCGQGTQVPYTFGQGTKLEIK is ____.
Data returned: 2.17

Data request: Note, next up: GLS3000 S56R (antibody, name in Kabat numbering, V domains shown, one-arm format as m2) VH: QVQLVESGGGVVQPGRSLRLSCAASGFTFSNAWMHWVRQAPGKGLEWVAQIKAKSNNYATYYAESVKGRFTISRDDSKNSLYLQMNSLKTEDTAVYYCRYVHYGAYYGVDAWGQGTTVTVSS VL: DIVMTQSPLSLPVTPGEPASISCRSSQSLVHSNRNTYLHWYQQKPGQAPRLLIYKVSNRFRGVPDRFSGSGSGTDFTLKISRVEAEDVGVYYCGQGTQVPYTFGQGTKLEIK
Data returned: 1.36

New cases:
Data request: Bench note: what ratio of amounts bound (vs GLS3000) did GLS3000 S25I (antibody, name in Kabat numbering, V domains shown, one-arm format as m2) VH: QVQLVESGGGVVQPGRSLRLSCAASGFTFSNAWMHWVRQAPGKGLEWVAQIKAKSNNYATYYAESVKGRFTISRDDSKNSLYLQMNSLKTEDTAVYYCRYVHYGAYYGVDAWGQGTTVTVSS VL: DIVMTQSPLSLPVTPGEPASISCRISQSLVHSNRNTYLHWYQQKPGQAPRLLIYKVSNRFSGVPDRFSGSGSGTDFTLKISRVEAEDVGVYYCGQGTQVPYTFGQGTKLEIK show?
Data returned: 0.53
